Data origin: patent US20110046043A1

Target: T1, IZN17 (peptide 11, AcIKKEIEAIKKEQEAIKKKIEAIEKLLQLTVWGIKQLQARIL-NH2) (N-terminal acetyl (Ac); C-terminal amide (NH2))
T1 construct: also called peptide IZN17; 1ZN17
T1 chain: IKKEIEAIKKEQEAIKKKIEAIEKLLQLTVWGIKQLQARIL
Assay: fluorescence polarization competition, displacement of peptide 12 from IZN17; upper limit of the assay
pKd: −log10 of the molar value.
measure_name: pKd

XMTWEEWDKKIEEYTKKI (X at position 1 is a pentenoic acid residue; internally-constrained α-helical region (hydrogen bond surrogate, carbon-carbon bond by ring-closing metathesis) spanning residues 1 through 4 of SEQ ID NO: 9, also called peptide 9) [HBS α-helix 9 (XMTWEEWDKKIEEYTKKI)]; > 5.30

Now for another entry.
Which pKd reading was recorded for the binder XNEMTWEEWDKKIEEYT (X at position 1 is a pentenoic acid residue; N-terminal hydrogen bond surrogate (carbon-carbon bond by ring-closing metathesis in place of an i and i+4 hydrogen bond), also called peptide 8) [HBS α-helix 8 (XNEMTWEEWDKKIEEYT)] ? > 5.30
